# credit: paper PMC7506991

- Tested system: Timeless DBD (Homo sapiens, UniProt Q9UNS1 816-954)
- Sequence (Q9UNS1 816-954): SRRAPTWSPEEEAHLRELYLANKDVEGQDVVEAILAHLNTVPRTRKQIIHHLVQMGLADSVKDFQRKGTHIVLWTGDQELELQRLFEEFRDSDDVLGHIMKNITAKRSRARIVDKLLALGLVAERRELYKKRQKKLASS
- Test: fluorescence anisotropy; 150 mM KCl; FA at 25 C, 10 nM DNA: DBD in 25 mM HEPES-NaOH pH 7.2, 150 mM KCl, 0.5 mM EDTA, 0.005% Tween-20; Timeless-Tipin in 25 mM HEPES pH 7.1, 150 mM KCl, 1 mM DTT, 5 mM MgCl2; EMSA in 25 mM HEPES pH 7.1, 150 mM KCl, 5 mM MgCl2, 1 mM DTT on ice, 1% agarose at 4 C
- Settings: protein: recombinant; tags: His14-SUMO removed; label: 3' Cy3; G4 intramolecular
Value type: Kd

INSERT INTO assay_data (binder, value_type, result_value) VALUES
  ('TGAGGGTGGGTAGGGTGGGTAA (structured_DNA) [G4 DNA (MYC, 1XAV) Cy3]', 'Kd', '~120 nM');
